Catalogue of molecules with associated Dmax
Target: IKZF2 (Homo sapiens (Human), UniProt Q96SW2+Q9UKS7)
Sequence (Q9UKS7 whole entry): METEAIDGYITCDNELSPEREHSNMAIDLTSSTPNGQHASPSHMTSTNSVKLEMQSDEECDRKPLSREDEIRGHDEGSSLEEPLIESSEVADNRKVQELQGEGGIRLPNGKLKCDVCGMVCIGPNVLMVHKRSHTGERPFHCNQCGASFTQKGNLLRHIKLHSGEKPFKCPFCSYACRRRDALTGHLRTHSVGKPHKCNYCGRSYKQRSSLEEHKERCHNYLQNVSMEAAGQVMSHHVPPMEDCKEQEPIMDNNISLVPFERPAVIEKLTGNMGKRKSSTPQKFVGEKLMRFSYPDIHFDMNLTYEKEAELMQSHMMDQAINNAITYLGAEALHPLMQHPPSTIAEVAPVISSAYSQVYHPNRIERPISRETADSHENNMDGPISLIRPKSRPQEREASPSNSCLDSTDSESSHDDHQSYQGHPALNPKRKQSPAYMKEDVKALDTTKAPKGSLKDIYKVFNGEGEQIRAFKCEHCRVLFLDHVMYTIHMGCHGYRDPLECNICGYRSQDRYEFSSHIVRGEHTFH
Sequence (Q96SW2 whole entry): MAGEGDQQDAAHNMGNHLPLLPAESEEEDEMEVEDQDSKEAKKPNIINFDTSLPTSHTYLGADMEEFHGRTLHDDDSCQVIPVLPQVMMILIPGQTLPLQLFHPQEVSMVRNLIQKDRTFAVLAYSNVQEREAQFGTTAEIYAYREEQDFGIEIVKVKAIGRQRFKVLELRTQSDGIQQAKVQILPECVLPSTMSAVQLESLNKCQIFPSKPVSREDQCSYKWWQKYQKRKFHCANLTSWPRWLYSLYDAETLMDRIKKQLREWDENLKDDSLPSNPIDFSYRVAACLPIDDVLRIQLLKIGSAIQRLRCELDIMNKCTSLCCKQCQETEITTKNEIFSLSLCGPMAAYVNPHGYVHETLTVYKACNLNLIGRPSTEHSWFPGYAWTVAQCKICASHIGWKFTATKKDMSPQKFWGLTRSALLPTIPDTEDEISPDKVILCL
Sequence (Q16531 whole entry partner): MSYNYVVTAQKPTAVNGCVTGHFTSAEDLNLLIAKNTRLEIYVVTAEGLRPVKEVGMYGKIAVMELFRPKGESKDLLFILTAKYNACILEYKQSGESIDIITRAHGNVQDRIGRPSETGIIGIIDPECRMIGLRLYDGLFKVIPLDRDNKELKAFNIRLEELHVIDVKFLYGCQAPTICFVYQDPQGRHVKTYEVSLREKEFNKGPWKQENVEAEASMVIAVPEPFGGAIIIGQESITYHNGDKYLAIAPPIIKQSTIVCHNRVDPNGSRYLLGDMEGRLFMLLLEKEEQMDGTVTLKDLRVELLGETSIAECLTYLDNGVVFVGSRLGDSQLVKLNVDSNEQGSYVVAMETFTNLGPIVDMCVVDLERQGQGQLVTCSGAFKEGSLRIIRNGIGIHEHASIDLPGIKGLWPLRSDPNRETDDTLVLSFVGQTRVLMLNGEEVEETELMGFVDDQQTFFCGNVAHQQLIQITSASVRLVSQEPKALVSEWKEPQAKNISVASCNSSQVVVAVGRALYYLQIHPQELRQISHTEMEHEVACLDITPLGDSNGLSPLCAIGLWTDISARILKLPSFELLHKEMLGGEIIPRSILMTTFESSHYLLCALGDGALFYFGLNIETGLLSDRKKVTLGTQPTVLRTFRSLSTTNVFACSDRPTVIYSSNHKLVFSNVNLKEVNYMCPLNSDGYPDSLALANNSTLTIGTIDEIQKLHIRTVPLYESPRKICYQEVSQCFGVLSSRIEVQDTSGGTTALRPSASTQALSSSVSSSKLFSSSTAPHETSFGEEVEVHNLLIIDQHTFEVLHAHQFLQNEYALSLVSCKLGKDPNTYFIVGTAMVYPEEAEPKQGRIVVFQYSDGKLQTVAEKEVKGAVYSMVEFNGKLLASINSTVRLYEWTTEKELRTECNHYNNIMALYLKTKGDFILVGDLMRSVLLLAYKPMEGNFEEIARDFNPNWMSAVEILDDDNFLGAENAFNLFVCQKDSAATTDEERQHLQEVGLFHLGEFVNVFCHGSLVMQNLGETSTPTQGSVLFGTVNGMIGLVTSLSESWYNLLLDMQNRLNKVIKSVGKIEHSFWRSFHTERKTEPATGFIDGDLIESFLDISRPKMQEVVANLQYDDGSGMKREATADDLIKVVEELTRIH
Assay: IKZF2 HiBiT Assay (Jurkat-IKZF2-HiBiT cell line)
Format: cell-based
Conditions: Jurkat-IKZF2-HiBiT cells, 24 hours; read-out: HiBit assay degradation analysis Dmax
measure.name: Dmax

| molecule | tested.target | result |
| --- | --- | --- |
| O=C1CCC(N2Cc3c(ccc4c3OCC43CCN(Cc4ccccc4-n4cccn4)CC3)C2=O)C(=O)N1 (stereo not shown) | IKZF2 (Homo sapiens (Human), UniProt Q96SW2+Q9UKS7) | < 40% |
| CC(C)(c1ccccc1)n1cc(CN2CCC3(CC2)COc2c3ccc3c2CN([C@H]2CCC(=O)NC2=O)C3=O)cn1 | IKZF2 (Homo sapiens (Human), UniProt Q96SW2+Q9UKS7) | 60 to 80% |
| O=C1CCC(N2Cc3c(ccc4c3OCC43CCN(Cc4cccc(-c5cccnc5)c4)CC3)C2=O)C(=O)N1 (stereo not shown) | IKZF2 (Homo sapiens (Human), UniProt Q96SW2+Q9UKS7) | 60 to 80% |
| O=C1CCC(N2Cc3c(ccc4c3OCCC43CCNCC3)C2=O)C(=O)N1 (stereo not shown) | IKZF2 (Homo sapiens (Human), UniProt Q96SW2+Q9UKS7) | < 40% |

---

Target: IKZF2 (Homo sapiens (Human), UniProt Q96SW2+Q9UKS7)
Test: IKZF2 HiBiT Assay (Jurkat-IKZF2-HiBiT cell line)
Type: cell-based
Conditions: Jurkat-IKZF2-HiBiT cells, 24 hours; read-out: HiBit assay degradation analysis DC50
Each entry below lists one item and its recorded DC50 value.
measure.name: DC50

| compound | result |
| --- | --- |
| O=C1CCC(N2Cc3c(ccc4c3OCC43CCN(Cc4ccc5nn(CCO)cc5c4)CC3)C2=O)C(=O)N1 (stereo not shown) [Compound A345] | > 500 nM |
| O=C1CCC(N2Cc3c(ccc4c3OCC43CCN(Cc4ccc5scnc5c4)CC3)C2=O)C(=O)N1 (stereo not shown) [Compound A54] | 50 to 200 nM |
| O=C1CCC(N2Cc3c(ccc4c3OCC43CCN(C[C@H]4C[C@H](Oc5ccc(F)cc5)C4)CC3)C2=O)C(=O)N1 (stereo partly shown) [Compound A356] | > 500 nM |
| O=C1CCC(N2Cc3c(ccc4c3OCC43CCN(Cc4cnn(Cc5cccc(Cl)c5)c4)CC3)C2=O)C(=O)N1 (stereo not shown) [Compound A242] | < 50 nM |
| O=C1CCC(N2Cc3c(ccc4c3OCC43CCN(Cc4cccc(F)c4)CC3)C2=O)C(=O)N1 (stereo not shown) [Compound A29] | > 500 nM |
| O=C1CCC(N2Cc3c(ccc4c3OCC43CCN(Cc4ccc5[nH]cnc5c4)CC3)C2=O)C(=O)N1 (stereo not shown) [Compound A70] | 200 to 500 nM |
| O=C1CCC(N2Cc3c(ccc4c3OCC43CCN(Cc4cccc(Cl)c4)CC3)C2=O)C(=O)N1 (stereo not shown) [Compound A216] | 50 to 200 nM |

---

// reported Dmax per item
Molecular target: IKZF2 (Homo sapiens (Human), UniProt Q96SW2+Q9UKS7)
Experiment: IKZF2 HiBit Assay (HEK293T Flp-in-HiBiT cells)
Type: cell-based
Details: HEK-293T; HEK293T Flp-in-HiBiT cells, 6 hrs; read-out: IKZF2 HiBit degradation Dmax
measure.name: Dmax

| compound | tested.target | result |
| --- | --- | --- |
| O=C1CC[C@H](N2Cc3c(ccc4c3OCC43CCN(Cc4ccc5c(c4)C(=O)NC5)CC3(F)F)C2=O)C(=O)N1 (stereo partly drawn) | IKZF2 (Homo sapiens (Human), UniProt Q96SW2+Q9UKS7) | 60 to 80% |
| [2H]C([2H])(c1cccc(-c2cnn(C)c2)c1)N1CCC2(CC1)COc1c2ccc2c1CN([C@H]1CCC(=O)NC1=O)C2=O | IKZF2 (Homo sapiens (Human), UniProt Q96SW2+Q9UKS7) | > 80% |
| O=C1CCC(N2Cc3c(ccc4c3OCC43CCN(Cc4ccccc4)CC3O)C2=O)C(=O)N1 (stereo not drawn) | IKZF2 (Homo sapiens (Human), UniProt Q96SW2+Q9UKS7) | 20 to 40% |
| Cn1cc2cc(CN3CCC4(COc5c4ccc4c5CN([C@H]5CCC(=O)NC5=O)C4=O)C(F)(F)C3)ccc2n1 (stereo partly drawn) | IKZF2 (Homo sapiens (Human), UniProt Q96SW2+Q9UKS7) | 60 to 80% |
| O=C1CCC(N2Cc3c(ccc4c3OCC43CCN(Cc4ccccc4)CC3(F)F)C2=O)C(=O)N1 (stereo not drawn) | IKZF2 (Homo sapiens (Human), UniProt Q96SW2+Q9UKS7) | 60 to 80% |
| O=C1CC[C@H](N2Cc3c(ccc4c3OCC43CCN(Cc4cnn(-c5ccc(Cl)cc5)c4)CC3(F)F)C2=O)C(=O)N1 (stereo partly drawn) | IKZF2 (Homo sapiens (Human), UniProt Q96SW2+Q9UKS7) | 60 to 80% |
| [2H]C([2H])(c1ccc2cn(C)nc2c1)N1CCC2(CC1)COc1c2ccc2c1CN([C@H]1CCC(=O)NC1=O)C2=O | IKZF2 (Homo sapiens (Human), UniProt Q96SW2+Q9UKS7) | 60 to 80% |
| O=C1CC[C@H](N2Cc3c4c(cc(Cl)c3C2=O)C2(CCN(Cc3ccccc3)CC2)CO4)C(=O)N1 | IKZF2 (Homo sapiens (Human), UniProt Q96SW2+Q9UKS7) | < 20% |
| O=C1CC[C@H](N2Cc3c(ccc4c3NCC43CCN(Cc4ccccc4)CC3)C2=O)C(=O)N1 | IKZF2 (Homo sapiens (Human), UniProt Q96SW2+Q9UKS7) | 40 to 60% |
| O=C1CC[C@H](N2Cc3c(ccc4c3OCC43CCN(Cc4cc(-c5ccc(Cl)cc5)no4)CC3)C2=O)C(=O)N1 | IKZF2 (Homo sapiens (Human), UniProt Q96SW2+Q9UKS7) | 60 to 80% |
| O=C1CC[C@H](N2Cc3c(ccc4c3OCC43CCN(Cc4ccc5c(c4)CC(=O)N5)CC3(F)F)C2=O)C(=O)N1 (stereo partly drawn) | IKZF2 (Homo sapiens (Human), UniProt Q96SW2+Q9UKS7) | 60 to 80% |
| [2H]C([2H])(c1cccc(-c2cnn(C([2H])([2H])[2H])c2)c1)N1CCC2(CC1)COc1c2ccc2c1CN([C@H]1CCC(=O)NC1=O)C2=O | IKZF2 (Homo sapiens (Human), UniProt Q96SW2+Q9UKS7) | 60 to 80% |
| [2H]C([2H])(c1cccc(-c2cnn(C(F)F)c2)c1)N1CCC2(CC1)COc1c2ccc2c1CN([C@H]1CCC(=O)NC1=O)C2=O | IKZF2 (Homo sapiens (Human), UniProt Q96SW2+Q9UKS7) | 60 to 80% |
| O=C1CC[C@H](N2Cc3c(ccc4c3OCC43CCN(Cc4cnn(CC5CCOCC5)c4)CC3(F)F)C2=O)C(=O)N1 (stereo partly drawn) | IKZF2 (Homo sapiens (Human), UniProt Q96SW2+Q9UKS7) | 60 to 80% |
| O=C1CC[C@H](N2Cc3c(ccc4c3OCC43CCN(Cc4cccc5[nH]ncc45)CC3(F)F)C2=O)C(=O)N1 (stereo partly drawn) | IKZF2 (Homo sapiens (Human), UniProt Q96SW2+Q9UKS7) | 60 to 80% |

Origin of measurements: patent US20250215012A1
